- assay: log P by HPLC on reversed-phase column (C 18), EEC Directive 79/831 Annex V.A8
- Type: physicochemical
- conditionInfo: log P, neutral range; HPLC on reversed-phase column (C 18), 55° C.
recordedMetric: LOGP_NEUTRAL

[[record]]
mol = "N#Cc1ccc(CNC(=O)c2cc(-c3ccc(OC(F)(F)F)cc3)cc(NC(=O)C3CC3)n2)c(F)c1"
val = 3.91

[[record]]
mol = "N#Cc1ccc(CNC(=O)c2cc(-c3ccc(C(F)(F)F)nc3)cc(NC(=O)C3CC3)n2)cc1"
val = 2.99

[[record]]
mol = "CC(C)NC(=O)c1cc(-c2ccc(C(F)(F)F)cc2)cc(NC(=O)C2CC2)n1"
val = 3.68

[[record]]
mol = "N#Cc1ccc(CNC(=O)c2cc(-c3cccc(OC(F)(F)F)c3)cc(NC(=O)C3CC3)n2)cc1"
val = 3.71

[[record]]
mol = "O=C(NCc1ccc(Cl)nc1)c1cc(-c2ccc(C(F)(F)F)cc2)cc(NC(=O)C2CC2)n1"
val = 3.55

[[record]]
mol = "CN(C(=O)c1cc(-c2ccc(C(F)(F)F)cc2)cc(NC(=O)C2CC2)n1)c1cccnc1"
val = 2.72

[[record]]
mol = "CC(C)C(=O)Nc1cc(-c2ccc(C(F)(F)F)cc2)cc(C(=O)NCc2ccc(C#N)cc2)n1"
val = 3.85

[[record]]
mol = "N#Cc1ccc(CNC(=O)c2cc(-c3ccc(SC(F)(F)F)cc3)cc(NC(=O)C3CC3)n2)cn1"
val = 3.72

[[record]]
mol = "N#Cc1ccc(CNC(=O)c2cc(-c3ccc(C(F)(C(F)(F)F)C(F)(F)F)cc3)cc(NC(=O)C3CC3)n2)cc1"
val = 4.41

[[record]]
mol = "O=C(NC1CC1)c1cc(-c2ccc(I)cc2)cc(NC(=O)C2CC2)n1"
val = 3.39

